- ASSAY_INFO: qHTS for differential inhibitors of proliferation of Plasmodium falciparum line 3D7 (AID 1876); further: potency means the concentration at half of the fitted maximal effect
- DETAILS: P. falciparum 3D7 proliferation inhibition; series mostly up to 28.7 µM
Records with an inconclusive call do not appear. Active and inactive are the calls of the source. The call rests on the fitted dose curve; in most records, active means well fitted curve in the direction sought with a large enough effect; inconclusive means small, poorly fitted or top-dose-only effect, or another doubt; inactive means no such curve, though single readings can be large or run the other way.
MEASUREMENT_TYPE: Potency

Example compounds with recorded Potency:
1. CO[C@@]1(NC(=O)CSCC#N)C(=O)N2C(C(=O)O)=C(CSc3nnnn3C)CS[C@@H]21 | inactive
2. NC(N)=NC(=O)Cc1c(Cl)cccc1Cl | 2820 nM (active)
3. NCCCNCCSP(=O)(O)O | inactive
4. Nc1nc(N)c2nc(-c3ccccc3)c(N)nc2n1 | 2000 nM (active)
5. CC(C(=O)O)c1ccc(CC2CCCC2=O)cc1 (stereo unspecified) | inactive

Kindly consider the entry below.
Could you share which Potency value was measured for CCN(CC)CCNC(=O)c1ccc(NC(C)=O)cc1 ?
inactive

###

- Test system: NIH3T3
- ASSAY_INFO: Cytotoxic Profiling of Annotated Libraries Using Quantitative High-Throughput Screening (AID 1296008); further: on the % scale 0 is the no-effect control and ±100 the full control effect; nearly all actives have a fitted effect of over 60% in size
- DETAILS: Five cell lines viability, CellTiter-Glo ATP luminescence, 48-72 h; hits give low values
Inconclusive results are not listed.
Entries and their measured max response follow.
Hi! Could you send only the number? It should be in %, unit omitted.

Some entries whose results are on file:
1) Nc1c2c(nc3ccccc13)CCCC2O (configuration not stated) | 4.53
2) CCCCCN(CCCCC)C(=O)C(CCC(=O)O)NC(=O)c1ccc(Cl)c(Cl)c1 (configuration not stated) | -0.48
3) Cc1nnc(SCC2=C(C(=O)O)N3C(=O)[C@@H](NC(=O)Cn4cnnn4)[C@H]3SC2)s1 | -2.45
4) Cc1ccc(=O)n(-c2ccccc2)c1 | -3.29
5) CCN(CC)CCCN(c1ccccc1)C1Cc2ccccc2C1 | -8.45
6) CC(=O)OC(C)C[N+](C)(C)C (configuration not stated) | 2.06

We now examine a further compound.
Form field - read-out: max response; system: NIH3T3; submitted item: Cc1scc2c1N(C(=O)CN1CCN(C)CC1)c1ccccc1NC2=O
-7.24

###

- ASSAY_INFO: qHTS for Inhibitors of Cell Surface uPA Generation: Validation Assay (AID 493164);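 further: RAW 264.7 macrophage cells exposed to compound for 18 h; 0% is about no effect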
- DETAILS: mouse cells, plasminogen activation; series mostly up to 38.3 µM
Activity calls are given as the source filed them. Calls follow the shape of the dose curve; as a rule, active = well fitted curve in the direction sought with a large enough effect; inconclusive = small, poorly fitted or top-dose-only effect, or effect the other way, or another doubt; inactive = no such curve, though single readings can be large or run the other way.
MEASUREMENT_TYPE: outcome

1. C[N+](C)(C)CCCCCCCCCC[N+](C)(C)C | inactive
2. Fc1ccc(C(c2ccc(F)cc2)N2CCN(C/C=C/c3ccccc3)CC2)cc1 | inactive
3. COC(=O)C1=C(C)NC(C)=C(C(=O)OC(C)(C)CN(C)CCC(c2ccccc2)c2ccccc2)C1c1cccc([N+](=O)[O-])c1 (stereo not drawn) | inactive

###

- ASSAY_INFO: Cellular Toxicity (caspase-3) SK-N-SH (AID 661);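 further: cells exposed to compound for 16 hours; 0% = DMSO basal and 100% = 10 µM staurosporine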
- DETAILS: SK-N-SH caspase-3 activation, qHTS; at 91.7 µM (top of the series), DMSO as zero, staurosporine as full
- Excerpt: NIH Chemical Genomics Center [NCGC] NIH Molecular Libraries Screening Centers Network [MLSCN] National Institutes of Environmental Health Sciences [NIEHS] National Toxicology Program [NTP] We have developed a 1536-well cell-based assay for quantitative high throughput screening (qHTS) against a number of cell lines to determine in vitro caspase 3/7 activity of small molecules. […] 8. Detection; Luminescence; Viewlux plate reader […]
MEASUREMENT_TYPE: caspase-3 activation (%)
Give your result in % as a bare value.

Consider the worked cases shown below.
1. CN=C(NC#N)NCCSCc1nc[nH]c1C | -1.11
2. O=c1[nH]c(=O)n([C@H]2C[C@H](O)[C@@H](CO)O2)cc1Br | -0.482
3. COC(=O)[C@H]1[C@H]2C[C@@H]3c4[nH]c5cc(OC)ccc5c4CCN3C[C@H]2C[C@@H](OC(=O)c2cc(OC)c(OC)c(OC)c2)[C@@H]1OC | 87.8
4. COc1ccc(CN(CCN(C)C)c2ccccn2)cc1 | -0.853
5. CCCCOCCOCCOCc1cc2c(cc1CCC)OCO2 | 1.34

Record request: caspase-3 activation value, item CCCCNC(=O)NS(=O)(=O)c1ccc(C)cc1
-0.361

Entry under review: NC(=Nc1ccccc1)Nc1ccccc1 . Reported caspase-3 activation?
0.122

###

- ASSAY_INFO: Cell Viability - LYMP2-024 (AID 988);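 further: cells exposed to compound for 24 hr at 37 °C; nearly all actives have a fitted effect of over 60% in size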
- DETAILS: LYMP2-024 lymphoblastoid cell viability; series mostly up to 92.2 µM
Records with an inconclusive call do not appear. The source made the active and inactive calls. Calls come from the whole dose curve; as a rule, active = well fitted cell-killing curve with a large enough effect; inconclusive = small, poorly fitted or top-dose-only effect; inactive = flat fitted curve, though single readings scatter.
I would appreciate it if you answered using one of these outcomes: 1 (yes) for active, 0 (no) for inactive

Some solved cases for reference:
1) CCCCNC(=O)NS(=O)(=O)c1ccc(C)cc1 | 0 (no)
2) COc1ccc(CN(CCN(C)C)c2ccccn2)cc1 | 0 (no)

Call for entry CCCCOCCOCCOCc1cc2c(cc1CCC)OCO2 :
0 (no)

Which outcome was assigned to Nc1ncn([C@@H]2O[C@H](CO)[C@@H](O)[C@H]2O)c(=O)n1 in this test?
1 (yes)

Test call for this compound, please: Nc1nc(N)c2nc(-c3ccccc3)c(N)nc2n1
0 (no)

###

- ASSAY_INFO: qHTS for differential inhibitors of proliferation of Plasmodium falciparum line HB3 (AID 1886);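 further: parasites grown with compound for 72 h before SYBR Green readout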
- DETAILS: Plasmodium falciparum HB3 proliferation inhibition; series mostly up to 28.7 µM
Records with an inconclusive call do not appear. Calls of active or inactive are those of the source. Calls follow the shape of the dose curve; as a rule, active = well fitted curve in the direction sought with a large enough effect; inconclusive = small, poorly fitted or top-dose-only effect, or another doubt; inactive = no such curve, though single readings can be large or run the other way.
Answer with one of the outcomes given here: y (active), n (inactive)

Use these answered entries as a reference point.
1. O=C(CCCN1CCC(O)(c2cccc(C(F)(F)F)c2)CC1)c1ccc(F)cc1 | y
2. NC(=O)c1ncn([C@@H]2O[C@H](CO)[C@@H](O)[C@H]2O)c1O | n
3. Cc1ccc(S(=O)(=O)NC(=O)NN2CCCCCC2)cc1 | n
4. NC(N)=NC(=O)Cc1c(Cl)cccc1Cl | y
5. CCCN(CCC)CCc1cccc2c1CC(=O)N2 | n

Outcome logged for CC(C)(C)NCC(O)c1cc(O)cc(O)c1 (configuration not stated) in this assay:
n

Hi, sorry to bother you, what did the test record for CCCCNc1c(C(=O)OCC)c(C)nc2c1cnn2CC ?
y

###

- TARGET_OR_SYSTEM: Tyrosine-protein phosphatase non-receptor type substrate 1 (Homo sapiens) + Leukocyte surface antigen CD47 (Homo sapiens) (UniProt P78324+Q08722)
- Sequence (P78324 whole entry, looked up, the tested form may be a part): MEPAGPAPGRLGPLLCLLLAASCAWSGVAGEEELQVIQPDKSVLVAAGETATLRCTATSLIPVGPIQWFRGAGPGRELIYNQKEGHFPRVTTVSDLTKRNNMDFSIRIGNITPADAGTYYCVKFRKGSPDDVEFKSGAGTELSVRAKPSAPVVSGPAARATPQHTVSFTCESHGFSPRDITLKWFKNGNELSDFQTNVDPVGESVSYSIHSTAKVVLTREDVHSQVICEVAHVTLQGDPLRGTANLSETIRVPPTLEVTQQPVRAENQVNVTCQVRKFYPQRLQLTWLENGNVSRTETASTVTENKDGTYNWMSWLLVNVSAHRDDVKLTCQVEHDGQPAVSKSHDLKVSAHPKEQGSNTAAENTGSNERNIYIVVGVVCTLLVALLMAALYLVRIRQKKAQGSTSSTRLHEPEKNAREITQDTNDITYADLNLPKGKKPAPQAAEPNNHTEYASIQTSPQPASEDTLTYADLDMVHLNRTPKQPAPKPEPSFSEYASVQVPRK
- Sequence (Q08722 whole entry, looked up, the tested form may be a part): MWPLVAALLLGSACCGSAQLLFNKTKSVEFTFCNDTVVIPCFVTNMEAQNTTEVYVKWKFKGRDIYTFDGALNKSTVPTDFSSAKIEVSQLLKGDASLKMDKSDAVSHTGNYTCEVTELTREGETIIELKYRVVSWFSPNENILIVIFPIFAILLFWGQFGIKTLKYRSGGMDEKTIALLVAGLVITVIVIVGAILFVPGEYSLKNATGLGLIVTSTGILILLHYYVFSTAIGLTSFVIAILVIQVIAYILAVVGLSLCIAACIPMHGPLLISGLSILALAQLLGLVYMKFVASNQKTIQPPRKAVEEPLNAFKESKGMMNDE
- ASSAY_INFO: CD47-SIRPalpha protein protein interaction - HTRF assay qHTS validation (AID 1347058);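 further: recombinant soluble extracellular CD47 with His tag and biotinylated SIRPalpha domains; 0% is about no effect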
- DETAILS: TR-FRET HTRF CD47-His / biotin-SIRPalpha binding, ratio 665/615; series mostly up to 38.3 µM
Records with an inconclusive call do not appear. Active and inactive are the calls of the source. Calls come from the whole dose curve; as a rule, active = well fitted curve in the direction sought with a large enough effect in the signal ratio (not every such curve was filed as active); inconclusive = small, poorly fitted or top-dose-only effect, or effect the other way, or a change in a side signal; inactive = no such curve, though single readings can be large or run the other way; the % refers to the signal ratio.
MEASUREMENT_TYPE: outcome

1) CCCCNc1ccc(C(=O)OCCN(C)C)cc1 | inactive
2) CCCNC(C)C(=O)Nc1ccccc1C (stereo not given) | inactive
3) CC(=O)[C@@]1(O)CC[C@H]2[C@@H]3CCC4=CC(=O)CC[C@]4(C)[C@H]3CC[C@@]21C | inactive
4) COc1ccc(CN(CCN(C)C)c2ccccn2)cc1 | inactive
5) Cc1ccc(/C(=C\CN2CCCC2)c2ccccn2)cc1 | inactive
6) NC(N)=N/N=C/c1c(Cl)cccc1Cl | inactive
7) NC(Cc1ccc(Cl)cc1)C(=O)O (stereo not given) | inactive
8) CN1C[C@H](C(=O)N[C@]2(C)O[C@@]3(O)[C@@H]4CCCN4C(=O)[C@H](Cc4ccccc4)N3C2=O)C[C@@H]2c3cccc4[nH]cc(c34)C[C@H]21 | inactive

So what's the measured outcome for this one? CNCCC(Oc1ccccc1OC)c1ccccc1 (stereo not given)
inactive

For the molecule C[N+](C)(C)CCCCCCCCCC[N+](C)(C)C , what outcome is on record?
inactive

Any idea what its outcome is? The molecule is COCC(=O)O[C@]1(CCN(C)CCCc2nc3ccccc3[nH]2)CCc2cc(F)ccc2[C@@H]1C(C)C
inactive

Record request: outcome value, item COCCc1ccc(OCC(O)CNC(C)C)cc1 (stereo not given)
inactive

###

- ASSAY_INFO: S16 Schwann cell PMP22 intronic element firefly luciferase assay (AID 624032);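 further: plate controls were DMSO for no effect and PTC124 positive control mean for full effect; nearly all actives have a fitted effect of over 30% in size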
- DETAILS: S16 rat Schwann cells, PMP22 element FLuc, 24 h; series mostly up to 57.5 µM
- Method: Charcot-Marie-Tooth-Association [CMTA] National Center for Advancing Translational Sciences [NCATS] […] The FLuc-expressing S16 cells were seeded in white solid 1536-well plates at between 500-750 cells/4uL in DMEM medium containing 10% FBS, w/o phenol red. […] Luminescence was measured on a ViewLux plate reader (Perkin Elmer). The % activity was determined by normalizing to the average readings of PTC124 (a positive control) - treated cells relative to DMSO-treated cells (0% Activity). […]
Results filed as inconclusive are left out. Calls of active or inactive are those of the source. Calls come from the whole dose curve; as a rule, active = well fitted inhibition curve with a large enough effect; inconclusive = small, poorly fitted or top-dose-only effect; inactive = no such curve, though single readings can be large or run the other way.
A correct response names exactly one class from active, inactive

Test call for this molecule, please: Brc1c(NC2=NCCN2)ccc2nccnc12
inactive

Could you check what this test reported for CCO/C([O-])=N/c1c[n+](N2CCOCC2)no1 ?
inactive

For NC(N)=NC(=O)Cc1c(Cl)cccc1Cl , what call appears in the results of this test?
inactive
